# Tested on: Histone deacetylase 9 (Homo sapiens, UniProt Q9UKV0)
# Sequence (Q9UKV0 whole entry): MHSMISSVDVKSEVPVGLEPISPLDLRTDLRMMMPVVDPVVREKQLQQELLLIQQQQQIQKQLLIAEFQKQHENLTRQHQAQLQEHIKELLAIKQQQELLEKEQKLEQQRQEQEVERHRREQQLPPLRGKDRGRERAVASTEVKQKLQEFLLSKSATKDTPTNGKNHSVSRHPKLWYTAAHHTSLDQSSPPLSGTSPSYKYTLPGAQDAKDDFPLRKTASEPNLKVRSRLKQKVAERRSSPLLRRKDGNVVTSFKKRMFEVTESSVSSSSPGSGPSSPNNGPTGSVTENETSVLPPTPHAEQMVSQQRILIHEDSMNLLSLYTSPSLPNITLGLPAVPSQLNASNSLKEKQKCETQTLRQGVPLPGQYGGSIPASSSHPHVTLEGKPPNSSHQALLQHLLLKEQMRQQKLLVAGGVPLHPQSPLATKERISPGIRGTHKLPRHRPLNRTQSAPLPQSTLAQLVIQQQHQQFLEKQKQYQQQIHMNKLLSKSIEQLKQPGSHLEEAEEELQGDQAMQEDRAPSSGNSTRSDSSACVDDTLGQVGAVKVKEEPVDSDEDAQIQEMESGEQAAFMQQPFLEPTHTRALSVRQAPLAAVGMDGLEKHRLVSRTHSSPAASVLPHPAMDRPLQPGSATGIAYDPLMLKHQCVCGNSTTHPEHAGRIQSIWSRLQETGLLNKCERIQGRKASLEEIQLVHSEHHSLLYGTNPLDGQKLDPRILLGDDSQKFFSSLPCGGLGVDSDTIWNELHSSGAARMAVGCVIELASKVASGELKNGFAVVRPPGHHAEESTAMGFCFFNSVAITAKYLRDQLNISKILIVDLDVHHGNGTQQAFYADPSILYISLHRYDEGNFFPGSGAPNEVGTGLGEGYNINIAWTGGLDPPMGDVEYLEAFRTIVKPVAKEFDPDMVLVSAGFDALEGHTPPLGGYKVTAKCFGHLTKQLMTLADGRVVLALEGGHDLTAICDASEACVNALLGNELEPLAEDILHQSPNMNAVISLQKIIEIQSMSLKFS
Quantity name: Ki (µM)
Provide the reading as a plain figure in µM.

Measured on Histone deacetylase 9 (Homo sapiens, UniProt Q9UKV0), Cn1c(/C=C/C(=O)NO)ccc1C(=O)Cc1ccccc1 has a documented Ki of 10

Measured on Histone deacetylase 9 (Homo sapiens, UniProt Q9UKV0), O=C(/C=C/c1ccc(C(=O)N/N=C/c2ccc(O)c(O)c2O)cc1)NO has a documented Ki of 1.4

Measured on Histone deacetylase 9 (Homo sapiens, UniProt Q9UKV0), CCN(CC)Cc1ccc2cc(COC(=O)Nc3ccc(C(=O)NO)cc3)ccc2c1 has a documented Ki of 0.39

Origin of measurements: ChEMBL document CHEMBL1212811
